The measured values listed here are drawn from ChEMBL document CHEMBL1938315.

Quick reference for pEC50 among some compounds
study_target: Transient receptor potential cation channel subfamily A member 1 (Homo sapiens)
test_details: Antagonist activity at human TRPA1 expressed in HEK293 cells assessed as inhibition of N-methyl-maleimide-induced current by patch clamp assay
Scale for pEC50: -log10 of concentration given in mol/L; no unit attached.

Given the compound COc1cccc([C@@H]2NC(=S)NC3=C2C(=O)c2ccccc23)c1 , what is its reported pEC50?
4.92

Proceeding to the next compound to report its pEC50.
Given the compound COc1cccc([C@H]2NC(=S)NC3=C2C(=O)c2ccccc23)c1 , what is its reported pEC50?
8.00

====

Quick reference for pIC50 among some molecules
study_target: Transient receptor potential cation channel subfamily A member 1 (Homo sapiens, UniProt O75762)
Sequence (O75762 whole entry): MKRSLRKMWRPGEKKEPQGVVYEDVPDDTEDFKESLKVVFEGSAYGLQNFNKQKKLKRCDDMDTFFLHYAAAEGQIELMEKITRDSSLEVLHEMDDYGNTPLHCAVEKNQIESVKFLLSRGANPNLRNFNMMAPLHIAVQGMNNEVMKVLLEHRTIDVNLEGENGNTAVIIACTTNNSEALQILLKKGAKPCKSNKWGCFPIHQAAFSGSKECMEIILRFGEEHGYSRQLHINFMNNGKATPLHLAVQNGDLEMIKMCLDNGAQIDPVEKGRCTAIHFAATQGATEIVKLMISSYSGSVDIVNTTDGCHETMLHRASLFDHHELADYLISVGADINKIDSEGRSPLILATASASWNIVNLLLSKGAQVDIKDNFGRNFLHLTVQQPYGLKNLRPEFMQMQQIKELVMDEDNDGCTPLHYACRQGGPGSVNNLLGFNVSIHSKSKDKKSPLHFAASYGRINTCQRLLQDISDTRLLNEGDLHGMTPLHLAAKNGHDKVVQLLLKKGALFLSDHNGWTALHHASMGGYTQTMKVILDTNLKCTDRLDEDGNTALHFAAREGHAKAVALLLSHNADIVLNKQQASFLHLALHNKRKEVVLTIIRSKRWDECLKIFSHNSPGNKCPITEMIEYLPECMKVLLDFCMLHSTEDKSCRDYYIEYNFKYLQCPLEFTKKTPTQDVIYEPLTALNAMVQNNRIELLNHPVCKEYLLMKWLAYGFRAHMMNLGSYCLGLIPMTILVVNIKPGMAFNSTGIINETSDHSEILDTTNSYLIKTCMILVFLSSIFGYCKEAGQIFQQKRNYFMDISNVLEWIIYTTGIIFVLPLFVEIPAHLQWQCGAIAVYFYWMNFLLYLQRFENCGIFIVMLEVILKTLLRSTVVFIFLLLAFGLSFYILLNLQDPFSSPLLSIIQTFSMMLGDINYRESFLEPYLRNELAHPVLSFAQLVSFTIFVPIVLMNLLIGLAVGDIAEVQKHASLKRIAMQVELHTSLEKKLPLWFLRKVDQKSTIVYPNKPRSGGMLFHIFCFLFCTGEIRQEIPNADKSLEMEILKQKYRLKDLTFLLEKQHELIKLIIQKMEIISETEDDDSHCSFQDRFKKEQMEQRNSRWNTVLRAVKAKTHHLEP
test_details: Antagonist activity at human TRPA1 expressed in HEK293 cells assessed as inhibition of 5H-dibenzo[b,e]azepine-10-carboxylic acid methyl ester-induced increase in intracellular calcium by Fluo4-AM based fluorometric assay
pIC50: −log10 of the molar value.

These recorded examples may help you get a feel for the data.
Given the molecule COc1ccccc1C1NC(=S)NC2=C1C(=O)c1ccccc12 (stereo unspecified) , what is its reported pIC50?
< 5.00

Next record, please: CC(C)c1ccc(NC(=O)Cn2cnc3c2c(=O)n(C)c(=O)n3C)cc1
< 5.00

Next record, please: O=C1C2=C(NC(=S)NC2c2cccc(OCCO)c2)c2ccccc21 (stereo unspecified)
6.68

Next record, please: CC1=C(C(=O)c2ccccc2)C(c2ccccc2)NC(=S)N1 (stereo unspecified)
< 5.00

Others:
Given the molecule COc1cc(OC)cc(C2NC(=S)NC3=C2C(=O)c2ccccc23)c1 (stereo unspecified) , what is its reported pIC50?
5.56

Next record, please: SC1=NC(c2ccccc2)=CC(c2ccccc2)N1 (stereo unspecified)
< 5.00
